# Target Or System: Cytochrome P450 2D6 (Homo sapiens)
# Assay Procedure: Cytochrome P450 family 2 subfamily D member 6 (CYP2D6) small molecule antagonists: luciferase biochemical (cell-free) qHTS assay (AID 1645840); also: nearly all actives have a fitted effect of over 55% in size
# Condition: P450-Glo CYP2D6 enzyme, luciferin luminescence, 1 h; series mostly up to 57.4 µM
Results filed as inconclusive are left out. Activity calls are given as the source filed them. Calls follow the shape of the dose curve; as a rule, active = well fitted inhibition curve with a large enough effect in the repeat runs; inconclusive = weak or mixed curves; inactive = flat fitted curve, though single readings scatter.
Log the outcome using a class from 1 (yes) = active, 0 (no) = inactive

Solved cases below.
CC(N=C(NC#N)Nc1ccncc1)C(C)(C)C (configuration not stated)    1 (yes)
Cc1nc2ccccn2c(=O)c1CCN1CCC(C(=O)c2ccc(F)cc2)CC1    1 (yes)
c1cc(CN2CCCCC2)cc(OCCCNc2nc3ccccc3s2)c1    1 (yes)

Field: outcome | Entry: `CN1C(=O)CC[C@H]1c1cccnc1` 0 (no)

Field: outcome | Entry: `Cc1ccc(Cl)c(Nc2ccccc2C(=O)O)c1Cl` 0 (no)

---

# Assay Procedure: qHTS for differential inhibitors of proliferation of Plasmodium falciparum line GB4 (AID 1816);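 also: parasite growth measured after 72 h incubation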; also: potency is read from the fitted curve at half-maximal effect
# Condition: Plasmodium falciparum GB4 proliferation inhibition; series mostly up to 28.7 µM
Results filed as inconclusive are left out. The source made the active and inactive calls. The call rests on the fitted dose curve; in most records, active means well fitted curve in the direction sought with a large enough effect; inconclusive means small, poorly fitted or top-dose-only effect, or another doubt; inactive means no such curve, though single readings can be large or run the other way.
Test Readout: Potency

The cases that follow already have their Potency on record.
CN1CCN(C2=Nc3ccccc3Oc3ccc(Cl)cc32)CC1    11.2 µM (active)
CN(C)CC/C=C1\c2ccccc2COc2ccccc21    3.98 µM (active)
COc1ccc(CCN(C)CCCC(C#N)(c2cc(OC)c(OC)c(OC)c2)C(C)C)cc1OC (stereo unspecified)    6.31 µM (active)
NS(=O)(=O)c1cc2c(cc1Cl)NC(C1CC3C=CC1C3)NS2(=O)=O (stereo unspecified)    inactive
Cc1ccc(S(=O)(=O)NC(=O)NN2CCCCCC2)cc1    inactive

Provide Potency value for the following molecule: `CC(C)[N+](C)(CCOC(=O)C1c2ccccc2Oc2ccccc21)C(C)C` 10 µM (active)

Provide Potency value for the following molecule: `CO[C@@]1(NC(=O)CSCC#N)C(=O)N2C(C(=O)O)=C(CSc3nnnn3C)CS[C@@H]21` inactive

Provide Potency value for the following molecule: `COCCCC/C(=N\OCCN)c1ccc(C(F)(F)F)cc1` 5.62 µM (active)

Provide Potency value for the following molecule: `NC(N)=NC(=O)Cc1c(Cl)cccc1Cl` 3.98 µM (active)

Provide Potency value for the following molecule: `CC1=NS(=O)(=O)c2cc(Cl)ccc2N1` inactive

Provide Potency value for the following molecule: `Cc1nc2sccn2c(=O)c1CCN1CCC(=C(c2ccc(F)cc2)c2ccc(F)cc2)CC1` 10 µM (active)

---

# Assay Procedure: qHTS assay for measurement of the activity of small molecule inhibitors on Zika virus induced Caspase-3 activity in human astrocytoma cells (AID 1224859);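 also: plate controls were ZIKV-infected untreated cells for no effect and uninfected cells for full effect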
# Condition: SNB-19 ZIKV-induced caspase-3/7, luminescence, 6 h; series mostly up to 45.7 µM
Calls of active or inactive are those of the source. Calls come from the whole dose curve; as a rule, active = well fitted inhibition curve with a large enough effect; inconclusive = small, poorly fitted or top-dose-only effect; inactive = no such curve, though single readings can be large or run the other way.
Test Readout: outcome

The cases that follow already have their outcome on record.
CNCCCN1c2ccccc2CCc2ccccc21    inactive
O=C(CCNNC(=O)c1ccncc1)NCc1ccccc1    inactive
O=C1NCN(c2ccccc2)C12CCN(CCCC(c1ccc(F)cc1)c1ccc(F)cc1)CC2    inactive
COc1cc(Cc2cnc(N)nc2N)cc(OC)c1OC    inactive
CCN1CCc2nc(N)oc2CC1    inactive

Provide outcome value for the following compound: `O=C(O)CP(=O)(O)O` inactive

Provide outcome value for the following compound: `CCNC(=O)N1CCN(CCCC(c2ccc(F)cc2)c2ccc(F)cc2)CC1` inactive

Provide outcome value for the following compound: CC(C)NCC(O)c1cc(O)cc(O)c1 (stereo not drawn) inactive

Provide outcome value for the following compound: `COc1ccc(CN(CCN(C)C)c2ccccn2)cc1` inactive

Provide outcome value for the following compound: `FC(F)(F)c1ccccc1-n1ccnc1` inactive

Provide outcome value for the following compound: COCCc1ccc(OCC(O)CNC(C)C)cc1 (stereo not drawn) inactive

Provide outcome value for the following compound: `COc1ccc([C@@H]2Sc3ccccc3N(CCN(C)C)C(=O)[C@@H]2OC(C)=O)cc1` inactive

Data origin: PubChem BioAssay (NCATS)
